Molecular target: recombinant human HDAC6 (Homo sapiens (Human), UniProt Q9UBN7)
Sequence (Q9UBN7 whole entry): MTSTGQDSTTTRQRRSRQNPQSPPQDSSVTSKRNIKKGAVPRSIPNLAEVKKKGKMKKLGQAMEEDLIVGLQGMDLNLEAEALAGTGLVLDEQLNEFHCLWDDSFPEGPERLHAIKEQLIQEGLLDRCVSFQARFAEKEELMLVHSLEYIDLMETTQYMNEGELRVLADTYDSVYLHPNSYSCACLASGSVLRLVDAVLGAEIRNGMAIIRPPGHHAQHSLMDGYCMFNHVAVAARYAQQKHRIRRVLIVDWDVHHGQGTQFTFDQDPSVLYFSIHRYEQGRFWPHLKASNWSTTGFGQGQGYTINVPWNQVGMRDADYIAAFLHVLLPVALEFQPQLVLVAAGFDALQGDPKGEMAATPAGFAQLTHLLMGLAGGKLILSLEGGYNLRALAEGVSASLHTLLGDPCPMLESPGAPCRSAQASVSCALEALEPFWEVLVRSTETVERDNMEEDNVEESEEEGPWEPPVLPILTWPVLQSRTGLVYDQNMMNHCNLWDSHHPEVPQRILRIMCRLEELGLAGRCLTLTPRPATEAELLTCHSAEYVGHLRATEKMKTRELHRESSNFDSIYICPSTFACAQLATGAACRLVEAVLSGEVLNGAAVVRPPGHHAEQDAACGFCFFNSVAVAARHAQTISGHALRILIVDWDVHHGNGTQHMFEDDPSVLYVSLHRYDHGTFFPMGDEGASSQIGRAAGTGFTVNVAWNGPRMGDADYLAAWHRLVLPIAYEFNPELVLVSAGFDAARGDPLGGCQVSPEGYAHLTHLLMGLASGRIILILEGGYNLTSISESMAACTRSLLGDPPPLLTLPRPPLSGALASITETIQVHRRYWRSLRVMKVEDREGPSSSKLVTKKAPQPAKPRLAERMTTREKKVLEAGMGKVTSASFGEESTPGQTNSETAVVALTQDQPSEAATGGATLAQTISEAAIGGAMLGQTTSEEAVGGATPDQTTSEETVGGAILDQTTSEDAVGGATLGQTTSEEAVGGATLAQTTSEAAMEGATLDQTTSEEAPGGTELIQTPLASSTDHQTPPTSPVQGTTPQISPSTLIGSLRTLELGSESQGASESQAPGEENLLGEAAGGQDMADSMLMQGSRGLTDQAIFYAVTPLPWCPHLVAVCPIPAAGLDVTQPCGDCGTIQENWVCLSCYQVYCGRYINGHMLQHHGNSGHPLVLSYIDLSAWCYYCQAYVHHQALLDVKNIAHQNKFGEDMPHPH
Test: Enzymatic screening, HDAC6 inhibition (fluorogenic FdL_G substrate)
Answer each item with its documented pIC50.
One number for each entry, as −log10 of the molar value.

Molecule	pIC50
CN1CCN(c2ccc(-c3nnn(Cc4ccc(-c5nnc(C(F)F)o5)cc4)n3)cc2)CC1 [compound 213]	6.82

Please give pIC50 for each item listed below.
1. FC(F)c1nnc(-c2ccc(Cn3nnc(-c4ccc(Cl)cc4Cl)n3)cc2)o1 [compound 263]
2. Cn1c(N)nc2cc(-c3nnn(Cc4ccc(-c5nnc(C(F)F)o5)cc4)n3)ccc21 [compound 11]

Result block:
[6.31, 7.72]

Would you be so kind as to report pIC50 for each listed record?
1. CC(C)(C)OC(=O)N1CCc2[nH]c(-c3cccc(-c4nnn(Cc5ccc(-c6nnc(C(F)F)o6)cc5)n4)c3)nc2C1 [compound 272]
2. O=C1NCc2ccc(-c3cn(Cc4ccc(-c5nnc(C(F)F)o5)cn4)cn3)cc21 [Compd. 292]
3. O=c1[nH]c2ccc(-c3nnn(Cc4ccc(-c5nnc(C(F)F)o5)cc4)n3)cc2[nH]1 [compound 168]
4. Nc1ccc(-c2cn(C(Cc3ccccc3)c3ccc(-c4nnc(C(F)F)o4)cc3)nn2)cn1 (centres unmarked) [compound 221]
5. Fc1cc(-c2nnc(C(F)F)o2)ccc1Cn1nnc(-c2ccc3cnccc3c2)n1 [compound 427]

Result block:
1: 6.39; 2: 7.52; 3: 7.10; 4: 6.80; 5: 7.14

---

Assay: Stability to Phase I metabolism in rat S9 liver fraction
Conditions: after 90 minutes, 37° C.
Endpoint label: residual percentage in RAT S9 FRACTION (%)
Answers are plain numbers, in %.

Example results:
Compound	residual percentage in RAT S9 FRACTION (%)
CC(=O)c1cccc(-c2nnn(Cc3ccc(-c4nnc(C(F)F)o4)cc3)n2)c1 [compound 140]	0
CCNc1nc2ccc(-c3cn(Cc4ccc(-c5nnc(C(F)F)o5)cc4)nn3)cc2[nH]1 [compd. 60]	94
Nc1ccc(-c2cn(Cc3ccc(-c4nnc(C(F)F)o4)cn3)nn2)cn1 [compound 5]	93
CCNc1nc2ccc(-c3cn(Cc4ccc(-c5nnc(C(F)F)o5)cn4)nn3)cc2[nH]1 [compound 18]	91
Nc1ccc(-c2cn(Cc3ccc(-c4nnc(C(F)F)o4)cc3)cn2)cn1 [compound 151]	79
O=C(c1cccc(-c2nnn(Cc3ccc(-c4nnc(C(F)F)o4)cc3F)n2)c1)N1CCOCC1 [compound 93]	59
C[C@H](c1ccc(-c2nnc(C(F)F)o2)cc1)n1cc(-c2ccc(N)nc2)nn1 [compound 106]	69

Query block: For Nc1nc2cc(-c3cn(Cc4ccc(-c5nnc(C(F)F)o5)cc4)nn3)ccc2[nH]1 [Compd. 8] , write its residual percentage in RAT S9 FRACTION.
Result block: 94

---

Could you please report measured IC50 for the items listed next?
Molecular target: recombinant human HDAC6 (Homo sapiens (Human))
Assay: Enzymatic screening, HDAC6 inhibition (fluorogenic FdL_G substrate)
A complete answer gives the number followed by the unit.

Here is how some compounds turned out for IC50.
Compound	IC50
Nc1ccc(-n2cc(Cc3ccc(-c4nnc(C(F)F)o4)cc3)nn2)cc1	668 nM
Nc1cc(-c2nnn(Cc3c(F)cc(-c4nnc(C(F)F)o4)cc3F)n2)ccc1OC(=O)N1CCOCC1	74 nM
O=C1NCc2ccc(-c3nnn(Cc4ccc(-c5nnc(C(F)F)o5)cn4)n3)cc21	12 nM
NC(=S)Nc1cccc(-c2cn(Cc3c(F)cc(-c4nnc(C(F)F)o4)cc3F)nn2)c1	88 nM
FC(F)c1nnc(-c2ccc(Cn3cc(-c4ccc(NC5=NCCN5)cc4)nn3)cc2)o1	16 nM
CN1CCN(c2cccc(-c3nnn(Cc4ccc(-c5nnc(C(F)F)o5)cc4)n3)c2)CC1	25 nM

Report IC50 for every entry below.
1. CC(c1ccc(-c2nnc(C(F)F)o2)cn1)n1cc(-c2ccc(N)nc2)nn1 (stereo not shown)
2. FC(F)c1nnc(-c2ccc(Cn3cnc(-c4ccc(NC5=NCCN5)cc4)c3)c(Cl)c2)o1
3. FC(F)c1nnc(-c2ccc(Cn3nnnc3-c3ncccn3)cc2)o1
4. O=C1Nc2ccc(-c3nnn(Cc4ccc(-c5nnc(C(F)F)o5)cc4)n3)cc2NC12CCCC2
5. Cn1c(N)nc2cc(-c3cn(Cc4ncc(-c5nnc(C(F)F)o5)cc4F)nn3)ccc21

Result block:
24 nM
52 nM
446 nM
42 nM
48 nM

Fill in IC50 for each of the 4 compounds listed.
1. CN1CCC(NC(=O)c2cccc(-c3nnn(Cc4ccc(-c5nnc(C(F)F)o5)cc4)n3)c2)CC1
2. O=C(Nc1cncc(-c2nnn(Cc3ccc(-c4nnc(C(F)F)o4)cc3)n2)c1)N1CCOCC1
3. CC(C)(C)OC(=O)NCC(=O)Nc1cccc(-c2cn(Cc3c(F)cc(-c4nnc(C(F)F)o4)cc3F)nn2)c1
4. FC(F)c1nnc(-c2ccc(Cn3nnc(-c4ccc5ccncc5c4)n3)cc2)o1

Result block:
33 nM
109 nM
86 nM
49 nM

State recorded IC50 for all listed compounds.
1. [2H]C([2H])(c1ccc(-c2nnc(C(F)F)o2)cc1)n1cnc(-c2ccc(NC3=NCCN3)cc2)c1
2. CC(C)(C)OC(=O)N1CCn2ncc(-c3cccc(-c4nnn(Cc5ccc(-c6nnc(C(F)F)o6)cc5)n4)c3)c2C1
3. COc1ncccc1-c1cn(Cc2ccc(-c3nnc(C(F)F)o3)cn2)nn1
4. O=C1NCc2ccc(-c3cnn(Cc4ccc(-c5nnc(C(F)F)o5)cn4)c3)cc21
5. O=C1Nc2ccc(-c3cn(Cc4ccc(-c5nnc(C(F)F)o5)cn4)nn3)cc2C12CCNCC2
6. Nc1ccc(-c2cn([C@@H](CO)c3ccc(-c4nnc(C(F)F)o4)cc3)nn2)cn1
7. Cn1c(N)nc2cc(-c3nnn(Cc4ccc(-c5nnc(C(F)F)o5)cc4Cl)n3)ccc21
8. O=C(Nc1cccc(-c2cn(Cc3ccc(-c4nnc(C(F)F)o4)cc3Cl)nn2)c1)N1CCOCC1

Result block:
1. 17 nM
2. 215 nM
3. 23 nM
4. 40 nM
5. 11 nM
6. 22 nM
7. 101 nM
8. 45 nM

# map each compound to its IC50
1. CS(=O)(=O)NCC[C@H](c1ccc(-c2nnc(C(F)F)o2)cc1)n1cc(-c2ccc(N)nc2)nn1
2. FC(F)c1nnc(-c2ccc(Cn3nnc(-c4ccc(CN5CCCCC5)cc4)n3)cc2)o1
3. FC(F)c1nnc(-c2ccc(Cn3nnc(-c4cncc5ccccc45)n3)cc2)o1
4. O=C1Nc2cc(-c3nnn(Cc4ccc(-c5nnc(C(F)F)o5)cc4)n3)ccc2NC12CCCCC2
5. [2H]C([2H])(c1ccc(-c2nnc(C(F)F)o2)cc1)n1cc(-c2ccc(N)nc2)nn1
6. Nc1ncnc2sc(-c3cn(Cc4ccc(-c5nnc(C(F)F)o5)c(F)c4)nn3)cc12

Result block:
1. 25 nM
2. 34 nM
3. 44 nM
4. 133 nM
5. 43 nM
6. 44 nM

Report IC50 for each item below.
1. Cn1c(N)nc2cc(-c3nnn(Cc4ccc(-c5nnc(C(F)F)o5)c(F)c4)n3)ccc21
2. Nc1ncnc2cc(-c3cn(Cc4cc(F)c(-c5nnc(C(F)F)o5)cc4F)nn3)ccc12

Result block:
1: 26 nM; 2: 23 nM
